# SYSTEM_UNDER_TEST: Ap4A-phosphorylase (Saccharomyces cerevisiae, UniProt P16550)
# Construct: l'Ap4A phosphorylase est constituée d'une seule chaîne; endogenous in cells; host or cells: Saccharomyces cerevisiae yeast cells; enzyme purified by ammonium sulfate, DEAE-Sephacel, Sephadex G-100, hydroxyapatite and Sephadex G-75 superfine
# Sequence (P16550 whole entry): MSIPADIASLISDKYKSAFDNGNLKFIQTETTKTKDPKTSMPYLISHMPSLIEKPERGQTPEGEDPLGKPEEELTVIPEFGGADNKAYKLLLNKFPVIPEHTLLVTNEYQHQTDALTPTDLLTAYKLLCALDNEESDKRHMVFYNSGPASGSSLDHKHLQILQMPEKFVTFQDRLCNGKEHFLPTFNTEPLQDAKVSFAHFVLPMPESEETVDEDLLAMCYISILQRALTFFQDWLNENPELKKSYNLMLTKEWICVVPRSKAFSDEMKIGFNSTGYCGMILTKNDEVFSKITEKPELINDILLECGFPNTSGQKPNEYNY
# ASSAY_NOTES: Ap4A-phosphorylase activity: initial rates of phosphorolysis of Ap4A and related substrates (PEI-cellulose TLC, radioactivity)
# Format: biochemical
# APPLIED_CONDITIONS: compounds structurally related to Ap4A, in presence of phosphate
ATTRIBUTE_MEASURED: substrat de l'Ap4A-phosphorylase (behaviour as substrate)

COMPOUND	OBSERVED_MEASUREMENT
Nc1ncnc2c1ncn2[C@@H]1O[C@H](COP(=O)(O)OP(=O)(O)OP(=O)(O)OP(=O)(O)OP(=O)(O)OC[C@H]2O[C@@H](n3cnc4c(N)ncnc43)[C@H](O)[C@@H]2O)[C@@H](O)[C@H]1O (single isomer, unassigned; diad) [Ap5A, Diadénosine pentaphosphate]	substrats
Nc1nc2c(ncn2[C@@H]2O[C@H](COP(=O)(O)OP(=O)(O)OP(=O)(O)OP(=O)(O)OC[C@H]3O[C@@H](n4cnc5c(=O)[nH]c(N)nc54)[C@H](O)[C@@H]3O)[C@@H](O)[C@H]2O)c(=O)[nH]1 [Gp4G, Diguanosine tétraphosphate]	substrats

Origin of measurements: patent EP0194905A1
